B1: POU domain, class 3, transcription factor 3, residues 320 to 388; numbered along this chain, P20264 (parent)
chain: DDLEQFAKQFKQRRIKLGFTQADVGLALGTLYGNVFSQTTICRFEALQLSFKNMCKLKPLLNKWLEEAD

- Variants of: B1
- measurementNotes: abundance fitness (aPCA) (normalised: wild type 0, dead -1); higher = more abundant; growth selection in yeast, the domain comes from the species named
- experimentalSetup: Homo sapiens
# binarize abundance fitness: threshold -0.1 inclusive, high side met, low side not met

Worked set:
> print(dat)
   mutantname  classname
1        T39F    not met
2        R43K        met
3        F36Y        met
4        T39A        met
5        L26G    not met
6        Q38L    not met
7        S37G    not met
8        L26A        met

**Q:** Hi, just wondering whether "L31S" shows abundance fitness of -0.1 or higher.
**A:** not met
